IC50 values for BTK (Homo sapiens, UniProt Q06187) compiled from several publications are listed below.

Consider the following illustrative entries.
1) O=C(CNc1cc(Cl)cc(Cl)c1)N1CCCC(N(CCO)c2ncnc3[nH]ccc23)C1 (stereo not drawn)	< 0.1 µM
2) O=C(CNc1ccccc1-n1cccn1)N[C@@H]1CCCN(c2ncnc3[nH]ccc23)C1	1 to 10 µM
3) Cc1ccnc(NC(=O)c2ccc(-c3nn([C@@H]4CCN(C(=O)/C=C/CN(C)C)C4)c4ncnc(N)c34)cc2)c1	< 0.001 µM

Query :: Bench note: what IC50 did "COc1cc(-c2nn([C@@H]3CCN(C(=O)/C=C/CN(C)C4CC4)C3)c3ncnc(N)c23)ccc1C(=O)Nc1cc(C)ccn1" show?
Result :: < 0.1 µM

Query :: For C=CC(=O)N1CCc2c(cccc2-c2c(C)nc(C(N)=O)c3[nH]c4c(c23)CCCC4)C1 (single isomer, unassigned) , what is its reported IC50?
Result :: 0.01 to 0.1 µM

Query :: Given the entry "C#CC(=O)N1CCC[C@@H](n2nc(-c3ccc(Oc4cc(F)cc(OCc5cnc(C)nc5)c4)cc3)c3c(N)ncnc32)C1" , report its measured IC50.
Result :: 0.008 µM

Query :: Item under review: "CN1CCN([C@H]2CC[C@H](n3nc(-c4ccc(Oc5ccccc5)cc4)c4c(N)ncnc43)CC2)CC1" . Reported IC50?
Result :: 0.000915 µM

Query :: Need IC50 of "Cc1cc(-c2ccnc(Nc3cnn(C)c3)n2)cnc1CNC(=O)c1cc2c(s1)CCOC2" , thanks.
Result :: 0.01 to 0.099 µM

Query :: Name the reported IC50 value associated with the molecule "C=CC(=O)N1CCC[C@@H](n2nc(-c3ccc(Cl)cc3)c3c(N)ncnc32)C1"
Result :: < 0.1 µM

Query :: Which IC50 is reported for this molecule? "C=CC(=O)N1CCC[C@@H](n2nc(-c3ccc(C(=O)Nc4ccccn4)cc3Cl)c3c(N)ncc(-c4cn[nH]c4)c32)C1"
Result :: 0.002 µM
